- Tested on: Acinetobacter baumannii
- assay-explanation: Antibacterial activity against multi-drug resistant Acinetobacter baumannii clinical isolate 10 assessed as inhibition of bacterial growth by CLSI protocol based method
- Type: functional
Let's look at some molecules and their measured MIC.

>  <molecule>
CCN(CC)c1ccc(/C=C/c2cc(C(C)(C)C)[o+]c(C(C)(C)C)c2)cc1.O=S(=O)([O-])C(F)(F)F

>  <MIC>
12.5 µg/mL

$$$$
>  <molecule>
CN1CCOc2cc(/C=C/c3cc(C(C)(C)C)[o+]c(C(C)(C)C)c3)ccc21.O=S(=O)([O-])C(F)(F)F

>  <MIC>
50 µg/mL

$$$$
>  <molecule>
CN(C)c1ccc(/C=C/c2cc(C(C)(C)C)[o+]c(C(C)(C)C)c2)cc1.O=S(=O)([O-])C(F)(F)F

>  <MIC>
25 µg/mL

$$$$
>  <molecule>
CC(C)(C)c1cc(/C=C/c2ccc(N3CCCC3)cc2)cc(C(C)(C)C)[o+]1.O=S(=O)([O-])C(F)(F)F

>  <MIC>
6.25 µg/mL

$$$$
>  <molecule>
NCC[C@H](O)C(=O)N[C@@H]1C[C@H](N)[C@@H](O[C@H]2O[C@H](CN)[C@@H](O)[C@H](O)[C@H]2O)[C@H](O)[C@H]1O[C@H]1O[C@H](CO)[C@@H](O)[C@H](N)[C@H]1O

>  <MIC>
> 100 µg/mL

$$$$
>  <molecule>
CNC(C)[C@@H]1CC[C@@H](N)[C@@H](O[C@H]2[C@H](O)[C@@H](O[C@H]3OC[C@](C)(O)[C@H](NC)[C@H]3O)[C@H](N)C[C@@H]2N)O1.CN[C@@H]1[C@@H](O)[C@@H](O[C@@H]2[C@@H](O)[C@H](O[C@H]3O[C@H](C(C)N)CC[C@H]3N)[C@@H](N)C[C@H]2N)OC[C@]1(C)O.CN[C@@H]1[C@@H](O)[C@@H](O[C@@H]2[C@@H](O)[C@H](O[C@H]3O[C@H](CN)CC[C@H]3N)[C@@H](N)C[C@H]2N)OC[C@]1(C)O (stereo partly specified)

>  <MIC>
> 100 µg/mL

$$$$
